The values you see were collected from ChEMBL document CHEMBL3407439.

# system_tested: Adenosine receptor A1 (Homo sapiens)
# Sequence (P30542 whole entry): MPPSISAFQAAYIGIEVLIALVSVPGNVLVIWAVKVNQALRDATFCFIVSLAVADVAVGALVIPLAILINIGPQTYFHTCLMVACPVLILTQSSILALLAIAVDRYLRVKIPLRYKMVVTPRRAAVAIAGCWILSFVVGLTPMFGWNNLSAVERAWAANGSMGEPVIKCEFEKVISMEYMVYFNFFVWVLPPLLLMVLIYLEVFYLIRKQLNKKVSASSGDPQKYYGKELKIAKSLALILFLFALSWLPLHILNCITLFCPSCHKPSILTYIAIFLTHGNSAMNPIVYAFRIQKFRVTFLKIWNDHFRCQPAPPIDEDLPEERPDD
readout_name: Ki (µM)
API: value field is a number in µM; no unit string.

smiles_text: CCOC(=O)c1nc(N(C(=O)c2ccccc2)C(=O)c2ccccc2)nc2nn(C(C)C)cc12
Ki / µM: 17.7

smiles_text: CCOC(=O)c1nc(NC(=O)c2ccccc2)nc2nn(CCc3ccccc3)cc12
Ki / µM: 5.1

smiles_text: CCOC(=O)c1nc(NC(=O)Cc2ccccc2)nc2nn(CCc3ccccc3)cc12
Ki / µM: 0.6

smiles_text: CCOC(=O)c1nc(N)nc2nn(CC(C)(C)C)cc12
Ki / µM: 4

smiles_text: CCOC(=O)c1nc(NC(=O)Cc2ccccc2)nc2nn(C(C)C)cc12
Ki / µM: 0.6

smiles_text: CCOC(=O)c1nc(NC(=O)c2ccc(Br)cc2)nc2nn(CCc3ccccc3)cc12
Ki / µM: 2.6

smiles_text: CCOC(=O)c1nc(N)nc2nn(C)cc12
Ki / µM: 8.8

smiles_text: CCOC(=O)c1nc(N)nc2nn(C(C)C)cc12
Ki / µM: 0.9

Record CCOC(=O)c1nc(N)nc2nn(CCc3ccccc3)cc12 . Reported Ki: 3.5

Record CCOC(=O)c1nc(NC(=O)c2ccc(C(F)(F)F)cc2)nc2nn(CCc3ccccc3)cc12 . Reported Ki: 2.5

Record CCOC(=O)c1nc(NC(=O)c2ccc(F)cc2)nc2nn(C(C)C)cc12 . Reported Ki: 2.8
